Just for reference, ChEMBL document CHEMBL3616462 is where these values come from.

Experiment: Antiviral activity against Influenza A virus (A/California/07/2009(H1N1)) infected in MDCK cells
Assay type: functional, cell-based
Parameter: EC50. Scope: all listed entries.
Give a bare numeral; the unit µM is implied.

[
  {
    "SMILES_NOTATION": "COC(=O)[C@]12CC[C@H](O)[C@H]1[C@@]13C=C(C(C)C)[C@@H]2C[C@@H]1[C@@]1(C)CCC[C@@](C)(C(=O)OC)[C@@H]1CC3",
    "MEASURED_RESULT": 32
  }
]

Input line: For the compound COC(=O)[C@H](CCSC)NC(=O)[C@]1(C)CCC[C@]2(C)[C@H]3C[C@H]4C(C(C)C)=C[C@]3(CC[C@H]21)[C@@H]1C(=O)OC(=O)[C@@H]14 , what EC50 is on record?
Output line: 31
